Sourced from patent US9670204B2

biological target: hENPP2 (UniProtKB/SwissProt Q13822) (Homo sapiens (Human), UniProt Q13822); assay: hENPP2 biochemical assay, LPC as substrate; conditions: LPC (palmitoyl 16:0) as substrate
pIC50: −log10 of the molar value.
I'd appreciate it if you could supply pIC50 values for the items below.

Completed entries (count: 5):
>>> print(df.to_string())
                                   compound  measured_result
0  CCc1nc2ccc(C3CCN(S(C)(=O)=O)CC3)cn2c1N(C)c1nc(-c2ccc(F)cc2)c(C#N)s1 [Compound 136]     6.30 to 7.00
1  CCc1nc2ccc(N3CCN(CC(=O)N4CCC4)CC3)cn2c1N(C)c1nc(-c2ccc(F)cc2C#N)cs1 [Compound 167]    7.00 to 11.00
2  CCc1nc2ccc(C3CCN(CC(=O)N4CCCC4)CC3)cn2c1N(C)c1nc(-c2ccc(F)cc2)cs1 [Compound 115]    7.00 to 11.00
3  CCc1nc2ccc(N3CCN(C(=O)C4CCN(C(C)=O)C4)CC3)cn2c1N(C)c1nc(-c2ccc(F)cc2)cs1 (stereo not shown) [Compound 48]           < 6.00
4  [2H]C([2H])([2H])N(c1nc(-c2ccc(F)cc2)cs1)c1c(CC)nc2ccc(C3CCN(S(C)(=O)=O)CC3)cn12 [Compound 102]           < 6.00

Fill in pIC50 for each of the 2 compounds listed.
1. CCc1nc2ccc(N3CCN(C(=O)C4CCN(S(C)(=O)=O)C4)CC3)cn2c1N(C)c1nc(-c2ccc(F)cc2)cs1 (stereo not shown) [Compound 49]
2. CCc1nc2ccc(N3CCN(CC(=O)N4CC(F)(F)C4)CC3)cn2c1N(C)c1nc(-c2ccc(F)cc2C#N)cs1 [Compound 165]

1: < 6.00; 2: 6.30 to 7.00

---

target: hENPP2 (UniProtKB/SwissProt Q13822) (Homo sapiens (Human), UniProt Q13822); test: hENPP2 biochemical assay, LPC as substrate; details: LPC (palmitoyl 16:0) as substrate
measured parameter: IC50

In [3]: df
Out[3]:
                                   compound                       experimental_target  measured_result
0  CCc1nc2ccc(N3CCN(S(C)(=O)=O)CC3)cn2c1N(C)c1nc(-c2ccc(Cl)cc2)ns1 [Compound 188]  hENPP2 (UniProtKB/SwissProt Q13822) (Homo sapiens (Human), UniProt Q13822)           > 1 µM
1  CCc1nc2ccc(C3CCN(C(=O)CCNC)CC3)cn2c1N(C)c1nc(-c2ccc(F)cc2)cs1 [Compound 132]  hENPP2 (UniProtKB/SwissProt Q13822) (Homo sapiens (Human), UniProt Q13822)           > 1 µM
2  CCOC(=O)CN1CCN(c2ccc3nc(CC)c(N(C)c4nc(-c5ccc(Cl)cc5)cs4)n3c2)C1=O [Compound 184]  hENPP2 (UniProtKB/SwissProt Q13822) (Homo sapiens (Human), UniProt Q13822)           > 1 µM
3  CCc1nc2ccc(C3=CCOCC3)cn2c1N(C)c1nc(-c2ccc(F)cc2)cs1 [Compound 220]  hENPP2 (UniProtKB/SwissProt Q13822) (Homo sapiens (Human), UniProt Q13822)           > 1 µM
4  CCc1nc2ccc(N3CCN(CC#N)CC3)cn2c1N(C)c1nc(-c2ccc(F)cc2)cs1 [Compound 38]  hENPP2 (UniProtKB/SwissProt Q13822) (Homo sapiens (Human), UniProt Q13822)           > 1 µM
5  CCc1nc2ccc(N3CCN(S(=O)(=O)CC(=O)O)CC3)cn2c1N(C)c1nc(-c2ccc(F)cc2)cs1 [Compound 60]  hENPP2 (UniProtKB/SwissProt Q13822) (Homo sapiens (Human), UniProt Q13822)           > 1 µM

Fill in IC50 for each of the 8 compounds listed.
1. CCc1nc2ccc(N3CCN(CC(=O)N4CC(O)C4)CC3)cn2c1N(C)c1nc(-c2ccc(F)cc2C#N)c(C)s1 [Compound 162]
2. CCc1nc2ccc(N3CCN(C(=O)OC(C)(C)C)CC3)cn2c1N(C)c1nc(-c2ccc(F)cc2)cs1 [Compound 23]
3. CCc1nc2ccc(C3CCN(CC(=O)N4CC(CO)C4)CC3)cn2c1N(C)c1nc(-c2ccc(F)cc2)c(CO)s1 [Compound 152]
4. CCc1nc2ccc(C3=CCN(S(C)(=O)=O)CC3)cn2c1N(C)c1nc(-c2ccc(F)cc2)ns1 [Compound 199]
5. CCc1nc2ccc(N3CCCS3(=O)=O)cn2c1N(C)c1nc(-c2ccc(F)cc2)cs1 [Compound 229]
6. CCc1nc2ccc(C3CCN(CC(=O)N4CC[C@@H](O)C4)CC3)cn2c1N(C)c1nc(-c2ccc(F)cc2)c(C#N)s1 [Compound 142]
7. CCOC(=O)CN1CC=C(c2ccc3nc(CC)c(N(C)c4nc(-c5ccc(F)cc5)cs4)n3c2)CC1 [Compound 108]
8. CCc1nc2ccc(N3CCN(C(=O)C4(N)CC4)CC3)cn2c1N(C)c1nc(-c2ccc(F)cc2)cs1 [Compound 202]

0.1 to 0.5 µM
> 1 µM
0.5 to 1 µM
> 1 µM
> 1 µM
1e-05 to 0.1 µM
> 1 µM
> 1 µM

Fill in IC50 for each of the 8 compounds listed.
1. CCc1nc2ccc(C3CCN(S(C)(=O)=O)CC3)cn2c1N(C)c1nc(-c2ccc(F)cc2)c(C(=O)C(F)(F)F)s1 [Compound 160]
2. CCc1nc2ccc(N3CCN(C(=O)C4CCNC4)CC3)cn2c1N(C)c1nc(-c2ccc(F)cc2)cs1 (centres unmarked) [Compound 47]
3. CCc1nc2ccc(C3CCN(S(=O)(=O)CCCN4CCCC4)CC3)cn2c1N(C)c1nc(-c2ccc(F)cc2)cs1 [Compound 89]
4. CCc1nc2ccc(C3CCN(CC(=O)N4CC[C@H](O)C4)CC3)cn2c1N(C)c1nc(-c2ccc(F)cc2)cs1 [Compound 112]
5. CCc1nc2ccc(C3CCN(S(C)(=O)=O)CC3)cn2c1N(C)c1nc(-c2ccc(C(F)(F)F)cc2)c(CO)s1 [Compound 150]
6. CN(C)C(=O)CN1CCC(c2ccc3nc(CCC#N)c(N(C)c4nc(-c5ccc(F)cc5)cs4)n3c2)CC1 [Compound 174]
7. CCc1nc2ccc(C3=CCS(=O)(=O)CC3)cn2c1N(C)c1nc(-c2ccc(Cl)cc2)cs1 [Compound 76]
8. CCc1nc2ccc(C3CCN(C(=O)CN(C)C)CC3)cn2c1N(C)c1nc(-c2ccc(F)cc2)c(CO)s1 [Compound 153]

["0.1 to 0.5 µM", "> 1 µM", "0.1 to 0.5 µM", "0.1 to 0.5 µM", "0.5 to 1 µM", "1e-05 to 0.1 µM", "> 1 µM", "0.5 to 1 µM"]

Fill in IC50 for each of the 5 compounds listed.
1. CCc1nc2ccc(C3=CCN(CC(=O)N(C)C)CC3)cn2c1N(C)c1nc(-c2ccc(F)cc2)ns1 [Compound 190]
2. CCc1nc2ccc(C3CCN(CC(=O)N4CC(F)(F)C4)CC3)cn2c1N(C)c1nc(-c2ccc(F)cc2)cs1 [Compound 124]
3. CCc1nc2ccc(N3CCC(O)CC3)cn2c1N(C)c1nc(-c2ccc(F)cc2)cs1 [Compound 211]
4. CCc1nc2ccc(C3CCN(S(C)(=O)=O)CC3)cn2c1N(C)c1nc(-c2ccc(F)cc2)cs1 [Compound 80]
5. CCc1nc2ccc(C3CCN(S(=O)(=O)CCCN(C)C)CC3)cn2c1N(C)c1nc(-c2ccc(F)cc2)cs1 [Compound 87]

> 1 µM
> 1 µM
> 1 µM
0.5 to 1 µM
0.1 to 0.5 µM

Fill in IC50 for each of the 2 compounds listed.
1. CCc1nc2ccc(C3CCN(S(=O)(=O)CCCCl)CC3)cn2c1N(C)c1nc(-c2ccc(F)cc2)cs1 [Compound 86]
2. CCc1nc2ccc(C3CCN(S(C)(=O)=O)CC3)cn2c1N(C)c1nc(-c2ccc(F)cc2C#N)c(C)s1 [Compound 97]

1: > 1 µM; 2: 0.1 to 0.5 µM
